The following compounds are listed with their measured cell viability values.
system: HepG2; assay: cell viability relative to DMSO; higher = less toxic; settings: 72 h; 10000 nM
Give the value, in units of %, as a plain number.

1) CCOC(N)=O    105
2) CC(C(=O)O)c1ccc2c(c1)CC(=O)c1ccccc1S2 (stereo not given)    111
3) O=C(Cc1ccc(-c2ccccc2)cc1)Nc1ccccn1 [difenpiramide]    43.6

Query string: In one line, give reported cell viability of the entry "O=C(Nc1cc2cc[nH]c2cn1)c1ccccc1" .
Result string: 80.8

Query string: Please list cell viability recorded for the compound "Oc1nc(O)c2cn[nH]c2n1"
Result string: 96

Query string: Recall and state the measured cell viability for "CC1(C)CC[C@]2(C(=O)O)CC[C@]3(C)C(=CC[C@@H]4[C@@]5(C)CC[C@H](O)C(C)(C)[C@@H]5CC[C@]43C)[C@@H]2C1" .
Result string: 94.7

Query string: Tell me measured cell viability for "O=C(c1ccccn1)c1cnn2c(-c3ccncc3)ccnc12" please.
Result string: 95.1

Query string: Complete the entry with cell viability for "O=C1CC(=O)c2c(Cl)c(Cl)c(Cl)c(Cl)c21"
Result string: 107

Query string: Indicate its recorded cell viability; the compound in question is CCCCCCCCCCCCCCOC(=O)c1cccnc1 [myristyl-nicotinate]
Result string: 102

Query string: State, in one line, measured cell viability of "CC(C)N(CCC(=O)c1ccc2ccccc2c1)Cc1ccccc1"
Result string: 66.6

* * *

system: A549-ACE2; assay: drug-induced phospholipidosis relative to tamoxifen; higher = more phospholipidosis; conditions: 0.3 µM; 72 h
Measured quantity: drug-induced phospholipidosis (%)
Give the value in % but do not write % after it.

Query string: Please report drug-induced phospholipidosis with A549-ACE2 for item "COc1ccc(/C=C2\CCCN=C2c2cccnc2)c(OC)c1" .
Result string: 3.83

Query string: Provide drug-induced phospholipidosis, system A549-ACE2, entry c1cnc2c([O][Ga]([O]c3cccc4cccnc34)[O]c3cccc4cccnc34)cccc2c1 [gallium-triquinolin-8-olate]
Result string: 3.03

Query string: Report the value of drug-induced phospholipidosis obtained on A549-ACE2 for "CCCc1cc(C)[nH]c(=O)c1CNC(=O)c1cc(-c2ccc(N3CCN(C(C)C)CC3)nc2)cc2c1cnn2C(C)C" .
Result string: 1.41

Query string: Report its drug-induced phospholipidosis with A549-ACE2 as the test system: "C[C@@H](O[C@H]1OCCN(Cc2nn[nH]c2CN(C)C)[C@H]1c1ccc(F)cc1)c1cc(C(F)(F)F)cc(C(F)(F)F)c1"
Result string: 2.71

* * *

test system: Caco-2; assay: cell viability relative to DMSO; higher = less toxic; conditions: 72 h; 1000 nM
Measured quantity: cell viability (%)
Write down the numeric answer in % and omit the unit.

A selection of reference data follows.
1) Cc1ccc2cc(-c3c(C)ccc(C(=O)c4c(-c5ccccc5)n(C)n(-c5ccccc5)c4=O)c3N)ccc2n1    68.5
2) CN(Cc1cccc(-c2ccccc2)c1)C(=O)Oc1ccc(-c2ccc(C(N)=O)cc2)cc1    91.8
3) N=C1NC(=O)/C(=C/c2ccc(O)cc2)S1    97.6
4) O=[N+]([O-])O[C@H]1CO[C@H]2[C@@H]1OC[C@H]2O[N+](=O)[O-] [isosorbide-dinitrate]    90.5
5) C=C1/C(=C\C=C2/CCC[C@]3(C)[C@@H]([C@H](C)CCCC(O)(C(F)(F)F)C(F)(F)F)CC[C@@H]23)C[C@@H](O)C[C@@H]1O    95.6
6) COC(=O)C[C@](O)(CCC(C)(C)O)C(=O)O[C@@H]1C(OC)=C[C@]23CCCN2CCc2cc4c(cc2[C@H]13)OCO4    56.3

Query string: Give cell viability for the following molecule: "NCC[C@H](O)C(=O)N[C@@H]1C[C@H](N)[C@@H](O[C@H]2O[C@H](CN)[C@@H](O)[C@H](O)[C@H]2O)[C@H](O)[C@H]1O[C@H]1O[C@H](CO)[C@@H](O)[C@H](N)[C@H]1O"
Result string: 104

Query string: Read off the recorded cell viability for "O=c1cc(-c2ccccc2)oc2cc(O)c(O)c(O)c12"
Result string: 99.2

Query string: Recall and state the measured cell viability for "CCOc1cc(C=O)ccc1O" .
Result string: 78.4

Query string: Could you please provide reported cell viability for "CC(=O)C(=Cc1cc(O)c(O)c([N+](=O)[O-])c1)C(C)=O" ? Thanks!
Result string: 95.7

Query string: Give recorded cell viability. "C[C@](N)(Cc1ccc(O)cc1)C(=O)O"
Result string: 88.1

Query string: Check the records and state cell viability for "Nc1nc(NC[C@H]2CC[C@H](CNS(=O)(=O)c3cccc4ccccc34)CC2)nc2ccccc12"
Result string: 95

Query string: Given "Oc1ncnc2[nH]ncc12" , respond with its cell viability.
Result string: 89.6

Query string: Check the records and state cell viability for "Cc1ccc(C(=O)N(CCCN)[C@@H](c2oc3cc(Cl)ccc3c(=O)c2Cc2ccccc2)C(C)C)cc1"
Result string: 66.1

Query string: Consider the molecule "CC(C)Oc1ccc2c(=O)c3cc(C(=O)O)ccc3oc2c1" and give its recorded cell viability.
Result string: 93.6

Query string: Write down cell viability measured for item "c1ccc(Cn2c(N3CCNCC3)nc3ccccc32)cc1"
Result string: 98.9
